Below: a set of entries, each annotated with reported EC50.
Assay: In vitro vitamin D receptor (VDR)-mediated transcriptional potency in rat osteosarcoma ROS 17/2.8 cells
Type: functional
Conditions: read-out: ED50 (the source's name)

Molecular string | EC50
C=C1/C(=C\C=C2/CCC[C@]3(C)[C@@H]([C@@H](C)OCCCS(=O)(=O)C(C)(C)C)CC[C@@H]23)C[C@H](O)C[C@H]1O | 1.6 nM
C=C1/C(=C\C=C2/CCC[C@]3(C)[C@@H]([C@@H](C)OCCCS(=O)(=O)C(C)(C)C)CC[C@@H]23)C[C@@H](O)C[C@@H]1O | > 100 nM

Hey, just so you know, these numbers are from ChEMBL document CHEMBL1132949.
